TESTED TARGET: ERα (Homo sapiens)
Sequence (P03372 whole entry): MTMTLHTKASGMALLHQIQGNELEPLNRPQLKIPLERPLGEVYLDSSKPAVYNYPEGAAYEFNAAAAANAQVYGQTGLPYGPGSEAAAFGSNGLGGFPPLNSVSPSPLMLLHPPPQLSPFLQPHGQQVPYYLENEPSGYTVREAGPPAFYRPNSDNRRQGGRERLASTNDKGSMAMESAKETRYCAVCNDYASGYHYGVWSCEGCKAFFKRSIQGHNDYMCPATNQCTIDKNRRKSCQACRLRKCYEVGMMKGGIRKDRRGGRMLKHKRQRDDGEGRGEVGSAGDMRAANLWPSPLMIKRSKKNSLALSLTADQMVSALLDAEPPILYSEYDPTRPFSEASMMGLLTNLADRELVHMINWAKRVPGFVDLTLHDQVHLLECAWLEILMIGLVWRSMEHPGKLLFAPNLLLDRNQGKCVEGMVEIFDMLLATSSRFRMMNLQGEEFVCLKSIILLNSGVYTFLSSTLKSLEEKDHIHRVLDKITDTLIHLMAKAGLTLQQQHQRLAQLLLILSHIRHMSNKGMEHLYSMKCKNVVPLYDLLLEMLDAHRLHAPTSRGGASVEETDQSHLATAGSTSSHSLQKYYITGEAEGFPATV
PROCEDURE DETAILS: ERα degradation in T-47D cells (Western blot)
Format: cell-based
CONDITIONS: 10nM, 4 hours
Would you mind telling me the reported Degradation rate of ERα in T-47D cells (%) of each entry?
Could you give me the number in %? Just the number is fine.

Case Cn1c(=O)n(C2CCC(=O)NC2=O)c2cc3c(cc21)C1(CCN(CC2CCC4(CC2)CN(c2ccc([C@@H]5c6ccc(O)cc6CC[C@@H]5c5ccccc5)cc2)C4)CC1)CO3 (some centres unmarked) [ER-P-61] , ERα (Homo sapiens), Degradation rate of ERα in T-47D cells (%) recorded as 43

Case Cn1c(=O)n(C2CCC(=O)NC2=O)c2cc3c(cc21)C1(CCN(C[C@H]2CC[C@@H](OC4CCN(c5ccc([C@@H]6c7ccc(O)cc7CC[C@@H]6c6ccccc6)cc5)CC4)CC2)CC1)CO3 (some centres unmarked) [ER-P-55] , ERα (Homo sapiens), Degradation rate of ERα in T-47D cells (%) recorded as 87

Case O=C1CCC(Nc2ccc3c(c2)OCC32CCN(C[C@H]3CC[C@@H](OC4CCN(c5ccc([C@@H]6c7ccc(O)cc7CC[C@@H]6c6ccccc6)cc5)CC4)CC3)CC2)C(=O)N1 (some centres unmarked) [ER-P-31] , ERα (Homo sapiens), Degradation rate of ERα in T-47D cells (%) recorded as 79

Case CN(c1ccc2c(c1)COC[C@H]1CN(CC3CCC(OC4CCN(c5ccc([C@@H]6c7ccc(O)cc7CC[C@@H]6c6ccccc6)cc5)CC4)CC3)CCN21)C1CCC(=O)NC1=O (some centres unmarked) [ER-P-53] , ERα (Homo sapiens), Degradation rate of ERα in T-47D cells (%) recorded as 33

Case O=C1CCC(N2Cc3c(ccc4c3OCC43CCC4(CCN(C5CCC6(CC5)CCN(c5ccc([C@@H]7c8ccc(O)cc8CC[C@@H]7c7ccccc7)cc5)CC6)CC4)CC3)C2=O)C(=O)N1 (some centres unmarked) [ER-P-57] , ERα (Homo sapiens), Degradation rate of ERα in T-47D cells (%) recorded as 68
